Data credit: ChEMBL document CHEMBL1152940

Tested Target: UniProt P61169
Experiment Summary: Agonist activity at rat dopamine D2short receptor expressed in CHO-K1 cells assessed as stimulation of [35S]GTPgammaS binding by liquid scintillation counting relative to dopamine
Assay type: functional, cell-based
Experimental Endpoint: Efficacy (%)

[
  {
    "Smiles Data": "CCN1CCc2cc(-c3ccccc3)cc3c2[C@H]1Cc1ccc(O)c(O)c1-3",
    "Experimental Endpoint": "Efficacy",
    "Observed Value": 72
  },
  {
    "Smiles Data": "CCCN1CCc2cc(C)cc3c2[C@H]1Cc1ccc(O)c(O)c1-3",
    "Experimental Endpoint": "Efficacy",
    "Observed Value": 65
  },
  {
    "Smiles Data": "CN1CCc2cccc3c2[C@H]1Cc1ccc(O)c(O)c1-3",
    "Experimental Endpoint": "Efficacy",
    "Observed Value": 58
  },
  {
    "Smiles Data": "CCCN1CCc2cc(-c3ccc(O)cc3)cc3c2[C@H]1Cc1ccc(O)c(O)c1-3",
    "Experimental Endpoint": "Efficacy",
    "Observed Value": 99
  },
  {
    "Smiles Data": "CCCN1CCc2cc(-c3ccccc3)cc3c2[C@H]1Cc1ccc(O)c(O)c1-3",
    "Experimental Endpoint": "Efficacy",
    "Observed Value": 100
  },
  {
    "Smiles Data": "CCN1CCc2cc(C)cc3c2[C@H]1Cc1ccc(O)c(O)c1-3",
    "Experimental Endpoint": "Efficacy",
    "Observed Value": 112
  },
  {
    "Smiles Data": "CCN1CCc2cc(-c3ccc(O)cc3)cc3c2[C@H]1Cc1ccc(O)c(O)c1-3",
    "Experimental Endpoint": "Efficacy",
    "Observed Value": 112
  }
]

###

Tested Target: D(2) dopamine receptor (Rattus norvegicus, UniProt P61169)
Sequence (P61169 whole entry): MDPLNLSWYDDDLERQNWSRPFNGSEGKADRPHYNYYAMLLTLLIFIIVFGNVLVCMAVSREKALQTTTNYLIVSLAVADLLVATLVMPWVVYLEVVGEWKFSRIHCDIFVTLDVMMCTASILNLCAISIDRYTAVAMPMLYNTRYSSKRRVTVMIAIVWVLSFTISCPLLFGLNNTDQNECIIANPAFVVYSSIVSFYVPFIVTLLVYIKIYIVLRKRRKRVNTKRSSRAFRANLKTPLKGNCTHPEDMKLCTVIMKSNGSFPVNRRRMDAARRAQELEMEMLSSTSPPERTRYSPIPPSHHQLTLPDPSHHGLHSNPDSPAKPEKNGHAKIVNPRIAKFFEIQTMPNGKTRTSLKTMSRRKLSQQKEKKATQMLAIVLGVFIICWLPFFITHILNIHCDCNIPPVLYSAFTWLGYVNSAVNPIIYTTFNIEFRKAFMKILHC
Experiment Summary: Agonist activity at rat dopamine D2short receptor expressed in CHO-K1 cells assessed as stimulation of [35S]GTPgammaS binding by liquid scintillation counting

[
  {
    "Smiles Data": "CN1CCc2cc(-c3ccccc3)cc3c2[C@H]1Cc1ccc(O)c(O)c1-3",
    "EC50, nM": 23
  },
  {
    "Smiles Data": "CCN1CCc2cc(C)cc3c2[C@H]1Cc1ccc(O)c(O)c1-3",
    "EC50, nM": 480
  },
  {
    "Smiles Data": "Cc1cc2c3c(c1)-c1c(ccc(O)c1O)C[C@H]3N(C)CC2",
    "EC50, nM": 43
  },
  {
    "Smiles Data": "CCCN1CCc2cc(-c3ccccc3)cc3c2[C@H]1Cc1ccc(O)c(O)c1-3",
    "EC50, nM": 577
  },
  {
    "Smiles Data": "CCCN1CCc2cc(C)cc3c2[C@H]1Cc1ccc(O)c(O)c1-3",
    "EC50, nM": 40
  },
  {
    "Smiles Data": "CCCN1CCc2cc(-c3ccc(O)cc3)cc3c2[C@H]1Cc1ccc(O)c(O)c1-3",
    "EC50, nM": 12
  },
  {
    "Smiles Data": "CN1CCc2cc(-c3ccc(O)cc3)cc3c2[C@H]1Cc1ccc(O)c(O)c1-3",
    "EC50, nM": 8.5
  },
  {
    "Smiles Data": "CCN1CCc2cc(-c3ccc(O)cc3)cc3c2[C@H]1Cc1ccc(O)c(O)c1-3",
    "EC50, nM": 8.7
  },
  {
    "Smiles Data": "CCN1CCc2cc(-c3ccccc3)cc3c2[C@H]1Cc1ccc(O)c(O)c1-3",
    "EC50, nM": 51
  }
]
